# experimental_system: T1, human CTLA-4 (human, UniProt P16410 36-223)
# T1 construct: whole, on cells; CHO cells stably expressing huCTLA4; also called huCTLA4
# T1 sequence (P16410 36-223): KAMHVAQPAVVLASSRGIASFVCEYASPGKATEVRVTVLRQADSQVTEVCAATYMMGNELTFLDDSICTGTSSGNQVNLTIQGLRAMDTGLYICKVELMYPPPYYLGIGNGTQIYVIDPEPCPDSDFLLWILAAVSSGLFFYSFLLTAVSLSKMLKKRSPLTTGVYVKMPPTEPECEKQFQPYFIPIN
# protocol_summary: flow cytometry, CHO cells stably expressing huCTLA-4, 33.3 nM Fc fusion, PE anti-human Fc
assay_readout: MFI at 33.3 nM (MFI)
Numeric only. Scale: MFI

variant CD80 IgV-Fc (inert) H18L/A26N/D46E/V68M/A71G/D90G (Fc fusion, not shown: inert human IgG1 Fc) VIHVTKEVKEVATLSCGLNVSVEELNQTRIYWQKEKKMVLTMMSGEMNIWPEYKNRTIFDITNNLSIMILGLRPSDEGTYECVVLKYEKGAFKREHLAEVTLSVKAD	17000

Can you look up the measured MFI at 33.3 nM of variant CD80 IgV-Fc (inert) H18T/A26N/E35D/M47L/V68M/A71G (Fc fusion, not shown: inert human IgG1 Fc) VIHVTKEVKEVATLSCGTNVSVEELNQTRIYWQKDKKMVLTMMSGDLNIWPEYKNRTIFDITNNLSIMILGLRPSDEGTYECVVLKYEKDAFKREHLAEVTLSVKAD for me?
20900

Param item: variant CD80 IgV-Fc (inert) H18F/A26D/E35D/D46E/M47T/V68M/A71G/D90G (Fc fusion, not shown: inert human IgG1 Fc) VIHVTKEVKEVATLSCGFNVSVEELDQTRIYWQKDKKMVLTMMSGETNIWPEYKNRTIFDITNNLSIMILGLRPSDEGTYECVVLKYEKGAFKREHLAEVTLSVKAD
17200

Okay, and variant CD80 IgV-Fc (inert) H18I/A26P/E35D/M47V/V68M/A71G (Fc fusion, not shown: inert human IgG1 Fc) VIHVTKEVKEVATLSCGINVSVEELPQTRIYWQKDKKMVLTMMSGDVNIWPEYKNRTIFDITNNLSIMILGLRPSDEGTYECVVLKYEKDAFKREHLAEVTLSVKAD ?
21900

Record: variant CD80 IgV-Fc (inert) H18C/A26P/E35D/M47L/V68M/A71G (Fc fusion, not shown: inert human IgG1 Fc) VIHVTKEVKEVATLSCGCNVSVEELPQTRIYWQKDKKMVLTMMSGDLNIWPEYKNRTIFDITNNLSIMILGLRPSDEGTYECVVLKYEKDAFKREHLAEVTLSVKAD
23400

# iterate: variant CD80 IgV-Fc (inert) H18V/A26N/E35D/M47V/V68M/A71G (Fc fusion, not shown: inert human IgG1 Fc) VIHVTKEVKEVATLSCGVNVSVEELNQTRIYWQKDKKMVLTMMSGDVNIWPEYKNRTIFDITNNLSIMILGLRPSDEGTYECVVLKYEKDAFKREHLAEVTLSVKAD
22400
